Cited source: patent US20240254121A1

- Tested on: brown planthopper (Nilaparvata lugens)
- Method: Nilaparvata lugens spray test
- Assay type: in vivo
- Setup conditions: 96 h, rice plants, after 4 days
Property label: mortality at 500 g/ha

• C[C@H](NC(=O)c1cc(OC(F)(F)F)cc(C2(C#N)CC2)c1)c1nc2cccnc2n1-c1ccc(C#N)cn1 [Example I-3] = 90%
• C[C@H](NC(=O)c1cc(OC(F)(F)F)cc(S(C)(=O)=O)c1)c1nc2cccnc2n1-c1ccc(C#N)cn1 [Example I-4] = 90%
• CC(NC(=O)c1cc(C(F)(F)F)cc(C(F)(F)F)c1)c1nc2cccnc2n1-c1ccc(C(=O)N(C)C)cn1 (stereo not drawn) [Example I-26] = 100%
• C[C@H](NC(=O)c1cc(OC(F)(F)F)cc(C(C)(C)C#N)c1)c1nc2cccnc2n1-c1ccc(C#N)cn1 [Example I-1] = 100%
• C[C@H](NC(=O)c1cc(C(F)(F)F)cc(C(F)(F)F)c1)c1nc2cccnc2n1-c1ccc(C#N)cn1 [Example I-15] = 90%
• CC(NC(=O)c1cc(OC(F)F)cc(OC(F)F)c1)c1nc2cccnc2n1-c1ccc(C#N)cn1 (stereo not drawn) [Example I-40] = 90%

---

- System: green peach aphid (Myzus persicae)
- Method: Myzus persicae oral test
- Format: in vivo
- Setup conditions: 120 h, after 5 days
Reported mortality at 20 ppm values for a set of molecules
Property label: mortality at 20 ppm (%)

• C[C@H](NC(=O)c1cc(C#N)cc(C(C)(C)C#N)c1)c1nc2cccnc2n1-c1ccc(C#N)cn1 = 100
• COC(=O)c1ccc(-n2c(C(C)NC(=O)c3cc(OC(F)(F)F)cc(S(C)(=O)=O)c3)nc3cccnc32)nc1 (stereo not drawn) = 100
• CC(NC(=O)c1cc(OC(F)(F)F)cc(OC(F)(F)F)c1)c1nc2cccnc2n1-c1ccc(Cl)cn1 (stereo not drawn) = 100

---

Reported mortality at 20 ppm values for a set of compounds
- Tested on: green peach aphid (Myzus persicae)
- Method: Myzus persicae oral test
- Format: in vivo
- Setup conditions: 120 h, after 5 days
- Procedure: Myzus persicae—Oral Test • Solvent: 100 parts by weight acetone To produce a suitable preparation of active compound, 1 part by weight of active compound is mixed with the stated amount of solvent, and the concentrate is diluted with water to the desired concentration. 50 μL compound solution is filled in microtiter plates and 150 μL IPL41 insect medium (33%+15% sugar) is added to obtain a total volume of 200 μL per well. […] After 5 days mortality in % is determined. […]
Property label: mortality at 20 ppm

• CC(NC(=O)c1cc(Cl)cc(S(C)(=O)=O)c1)c1nc2cccnc2n1-c1ccc(Cl)cn1 (stereo not shown) [Example I-10] = 100%
• C[C@H](NC(=O)c1cc(Cl)cc(S(C)(=O)=O)c1)c1nc2cccnc2n1-c1ccc(C#N)cn1 [Example I-5] = 100%
• CNC(=O)c1ccc(-n2c(C(C)NC(=O)c3cc(OC(F)(F)F)cc(OC(F)(F)F)c3)nc3cccnc32)nc1 (stereo not shown) [Example I-27] = 100%
• C[C@H](NC(=O)c1cc(OC(F)(F)F)cc(S(C)(=O)=O)c1)c1nc2cccnc2n1-c1ccc(C#N)cn1 [Example I-4] = 100%

---

- Test system: adult mosquitoes Aedes aegypti strain MONHEIM
- Method: Aedes aegypti test (AEDSAE surface treatment & contact assay)
- Assay type: in vivo
- Setup conditions: surface concentration 20 mg/m^2, 30 minutes exposure, 24 hours after contact, read-out: efficacy (mortality)
Property label: mortality at 20 mg/m2

• CC(NC(=O)c1cc(OC(F)(F)F)cc(OC(F)(F)F)c1)c1nc2cccnc2n1-c1ncccn1 (centres unmarked) = 80 to 100%
• C[C@H](NC(=O)c1cc(C(F)(F)F)cc(C(F)(F)F)c1)c1nc2cccnc2n1-c1ccc(C#N)cn1 = 80 to 100%
• CC(NC(=O)c1cc(C(F)(F)F)cc(C(F)(F)F)c1)c1nc2cccnc2n1-c1ccc(C(=O)N(C)C)cn1 (centres unmarked) = 80 to 100%
• CC(NC(=O)c1cc(OC(F)(F)F)cc(C2(C#N)CC2)c1)c1nc2cccnc2n1-c1ccc(Cl)cn1 (centres unmarked) = 80 to 100%
• CC(NC(=O)c1cc(OC(F)F)cc(OC(F)F)c1)c1nc2cccnc2n1-c1ccc(C#N)cn1 (centres unmarked) = 80 to 100%
• COC(=O)c1ccc(-n2c(C(C)NC(=O)c3cc(OC(F)(F)F)cc(S(C)(=O)=O)c3)nc3cccnc32)nc1 (centres unmarked) = 80 to 100%
• C[C@H](NC(=O)c1cc(OC(F)(F)F)cc(C2CC2)c1)c1nc2cccnc2n1-c1ccc(C#N)cn1 = 80 to 100%
• C[C@H](NC(=O)c1cc(C#N)cc(C(C)(C)C#N)c1)c1nc2cccnc2n1-c1ccc(C#N)cn1 = 80 to 100%
• C[C@H](NC(=O)c1cc(OC(F)(F)F)cc(C(C)(C)C#N)c1)c1nc2cccnc2n1-c1ccc(C#N)cn1 = 80 to 100%
• CC(NC(=O)c1cc(C(F)(F)F)cc(C(F)(F)F)c1)c1nc2cccnc2n1-c1ccc(Cl)cn1 (centres unmarked) = 80 to 100%
• C[C@H](NC(=O)c1cc(OC(F)(F)F)cc(OC(F)(F)F)c1)c1nc2cccnc2n1-c1ccc(C#N)cn1 = 80 to 100%
